Consider the following compounds and their measured concentration at 0.25 h readings.
Experiment: concentration in blood of mice after subcutaneous administration
Assay type: in vivo, mice (ddY type, male)
Conditions: mouse, sc, 20 mg/kg, 15 min

compound: CC(C)(O/N=C(\C(=O)N[C@@H]1C(=O)N2C(C(=O)[O-])=C(C[n+]3ccccc3)CS[C@H]12)c1csc(N)n1)C(=O)O [ceftazidime, reference compound]
concentration at 0.25 h, ng/mL: 24100
//
compound: CC(C)(ON=C(C(=O)NC1C(=O)N2C(C(=O)O)=C(CSc3nc(C(=O)O)c(-c4ccc(O)c(O)c4)s3)CSC12)c1csc(N)n1)C(=O)O (centres unmarked)
concentration at 0.25 h, ng/mL: 67000

----------
Test system: E. coli CSH(RE45)
Experiment: microbe, parasite or virus in culture
Assay type: cell-based
Conditions: Escherichia coli, 16 h, read-out: Minimum Inhibitory Concentration (MIC), *E. coli CSH(RE45), lactamase-producing strain; 10^6 CFU/ml
quantity_measured: MIC

compound: CC(C)(ON=C(C(=O)NC1C(=O)N2C(C(=O)O)=C(CSc3nc(C(=O)O)c(-c4ccc(O)c(O)c4)s3)CSC12)c1csc(N)n1)C(=O)O (stereo not shown)
result: 0.0125 µg/mL
//
compound: C#CCO/N=C(\C(=O)N[C@@H]1C(=O)N2C(C(=O)O)=C(CSc3nnc(-c4ccc(O)c(O)c4)o3)CS[C@H]12)c1csc(N)n1
result: 0.0125 µg/mL
//
compound: CC(=O)Oc1ccc(-c2nc(SCC3=C(C(=O)O)N4C(=O)[C@@H](NC(=O)/C(=N\OC(C)(C)C(=O)O)c5csc(N)n5)[C@H]4SC3)sc2CC(=O)O)cc1 [compound 20, reference compound]
result: 3.12 µg/mL
//
compound: Nc1nc(C(=NOC2CCCC2)C(=O)NC2C(=O)N3C(C(=O)O)=C(CSc4nc(C(=O)O)c(-c5ccc(O)c(O)c5)s4)CSC23)cs1 (stereo not shown)
result: 3.12 µg/mL
//
compound: Nc1nc(C(=NOC2(C(=O)O)CC2)C(=O)NC2C(=O)N3C(C(=O)O)=C(CSc4nc(-c5ccc(O)c(O)c5)cs4)CSC23)cs1 (stereo not shown)
result: 0.05 µg/mL
//
compound: CCON=C(C(=O)N[C@@H]1C(=O)N2C(C(=O)[O-])=C(CSc3ncc(-c4ccc(O)c(O)c4)o3)CS[C@H]12)c1csc(N)n1.[Na+]
result: 0.1 µg/mL
//
compound: CC(C)(O/N=C(\C(=O)N[C@@H]1C(=O)N2C(C(=O)O)=C(CSc3nnc(-c4ccc(O)cc4)s3)CS[C@H]12)c1csc(N)n1)C(=O)O [compound 8, reference compound]
result: 0.78 µg/mL
//
compound: Nc1nc(/C(=N/OCC(=O)O)C(=O)N[C@@H]2C(=O)N3C(C(=O)O)=C(CSc4nnc(-c5ccc(O)c(O)c5)o4)CS[C@H]23)cs1
result: 0.0125 µg/mL
//
compound: C=CCO/N=C(\C(=O)N[C@@H]1C(=O)N2C(C(=O)O)=C(CSc3nnc(-c4ccc(O)c(O)c4)s3)CS[C@H]12)c1csc(N)n1
result: 0.78 µg/mL
//
compound: CC(C)(O/N=C(\C(=O)N[C@@H]1C(=O)N2C(C(=O)O)=C(CSc3nc(-c4ccc(O)cc4)cs3)CS[C@H]12)c1csc(N)n1)C(=O)O [compound 12, reference compound]
result: 1.56 µg/mL
//
compound: C=CCON=C(C(=O)NC1C(=O)N2C(C(=O)O)=C(CSc3nc(C(=O)O)c(-c4ccc(O)c(O)c4)s3)CSC12)c1csc(N)n1 (stereo not shown)
result: 0.1 µg/mL
//
compound: CON=C(C(=O)NC1C(=O)N2C(C(=O)O)=C(CSc3nc(-c4ccc(O)c(O)c4)c(CC(=O)O)s3)CSC12)c1csc(N)n1 (stereo not shown)
result: 0.39 µg/mL
//
compound: Nc1nc(/C(=N/OC2(C(=O)O)CC2)C(=O)N[C@@H]2C(=O)N3C(C(=O)O)=C(CSc4ncc(-c5ccc(O)c(O)c5)o4)CS[C@H]23)cs1
result: 0.05 µg/mL
//
compound: Nc1nc(/C(=N/OC(C(=O)O)c2ccc(O)c(O)c2)C(=O)N[C@@H]2C(=O)N3C(C(=O)O)=C(CSc4ncc(-c5ccc(O)c(O)c5)o4)CS[C@H]23)cs1 (stereo partly shown)
result: 0.05 µg/mL
//
compound: CC(C)(O/N=C(\C(=O)N[C@@H]1C(=O)N2C(C(=O)O)=C(CSc3nc(C(=O)O)c(-c4ccccc4)s3)CS[C@H]12)c1csc(N)n1)C(=O)O [compound 14, reference compound]
result: 1.56 µg/mL
//
compound: CCON=C(C(=O)N[C@@H]1C(=O)N2C(C(=O)[O-])=C(CSc3nc(-c4ccc(OC(C)=O)c(OC(C)=O)c4)cs3)CS[C@H]12)c1csc(N)n1.[Na+]
result: 0.05 µg/mL
//
compound: CC(C)(O/N=C(\C(=O)N[C@@H]1C(=O)N2C(C(=O)O)=C(CSc3nc(-c4ccccc4)cs3)CS[C@H]12)c1csc(N)n1)C(=O)O [compound 11, reference compound]
result: 1.56 µg/mL
//
compound: CO/N=C(\C(=O)N[C@@H]1C(=O)N2C(C(=O)O)=C(CSc3nc(-c4ccc(OC(C)=O)cc4)c(CC(=O)O)s3)CS[C@H]12)c1csc(N)n1 [compound 18, reference compound]
result: 1.56 µg/mL
//
compound: CC(C)(ON=C(C(=O)NC1C(=O)N2C(C(=O)O)=C(CSc3nc(-c4ccc(O)c(O)c4)cs3)CSC12)c1csc(N)n1)C(=O)O (stereo not shown)
result: 0.0125 µg/mL
//
compound: CO/N=C(\C(=O)N[C@@H]1C(=O)N2C(C(=O)O)=C(CSc3nc(-c4ccc(O)cc4)c(CC(=O)O)s3)CS[C@H]12)c1csc(N)n1 [compound 17, reference compound]
result: 0.78 µg/mL
//
compound: CCO/N=C(\C(=O)N[C@@H]1C(=O)N2C(C(=O)O)=C(CSc3nnc(-c4ccc(O)c(O)c4)o3)CS[C@H]12)c1csc(N)n1
result: 0.0125 µg/mL
//
compound: CC(C)(ON=C(C(=O)NC1C(=O)N2C(C(=O)O)=C(CSc3nc(-c4ccc(O)c(O)c4)c(CC(=O)O)s3)CSC12)c1csc(N)n1)C(=O)O (stereo not shown)
result: 0.05 µg/mL
